Listed next: entries and their corresponding ATP Conversion.
- TARGET_SYSTEM: SpGalK (Streptococcus pneumoniae serotype 4, UniProt Q97NZ6)
- Construct: made in house
- TEST_DETAILS: Kinase reaction monitored by CE (ATP to ADP), SpGalK
- Assay type: biochemical, Streptococcus pneumoniae TIGR4
- PARTICULARS: 4 hr; monosaccharide 15 mM, ATP 18 mM, 37° C.
Response body: numeric value in %, unit text excluded.

Here is how some molecules turned out for ATP Conversion.
CC(=O)NC1C(O)OC(CO)[C@H](O)[C@@H]1O (stereo partly shown) :: 24.7
OCC1OC(O)C(O)[C@@H](O)[C@@H]1O (stereo partly shown) :: 13.8
OCC1OC(O)CC(O)[C@H]1O (stereo partly shown) :: 89.5

Next molecule, please.
Input [N-]=[N+]=NC1C(O)OC(CO)[C@H](O)C1O (stereo partly shown) . Output ATP Conversion: 79.0

----------
- Test system: NahK
- TEST_DETAILS: Kinase reaction monitored by CE (ATP to ADP), NahK
- Assay type: biochemical, Bifidobacterium infantis
- PARTICULARS: 4 hr; monosaccharide 15 mM, ATP 18 mM, 37° C.
Listed next: entries and their corresponding ATP Conversion.
Response body: numeric value in %, unit text excluded.

CC(=O)NC1C(O)OC(CO)[C@@H](O)[C@@H]1O (stereo partly shown) [GlcNAc, N-acetylglucosamine] :: 84.6
OCC1OC(O)C(O)[C@@H](O)[C@@H]1O (stereo partly shown) [Glc, glucose] :: 18.6
OCC1OC(O)C[C@@H](O)[C@@H]1O (stereo partly shown) [2-deoxy glucose] :: 69.6
NC1C(O)OC(CO)[C@@H](O)[C@@H]1O (stereo partly shown) [2-amino-2-deoxy-glucose] :: 28.0
N[C@@H]1C(O)O[C@H](CO)[C@@H](O)[C@@H]1O (stereo partly shown) [T6-13 ManNH2, mannosamine] :: 22.8

Input [N-]=[N+]=NC1C(O)OC(CO)[C@@H](O)C1O (stereo partly shown) [2N3-Man] . Output ATP Conversion: 65.9

Input CC(=O)N[C@@H]1C(O)O[C@H](CO)[C@@H](O)[C@@H]1O (stereo partly shown) [N-acetylmannosamine] . Output ATP Conversion: 26.1

----------
Listed next: entries and their corresponding Percentage Conversion.
- TARGET_SYSTEM: NahK_ATCC55813 (Bifidobacterium longum subsp. longum, UniProt E8MF12, D7V/R348H)
- Format: biochemical
- Design: made in house; host or cells: E. coli BL21(DE3)
- PARTICULARS: 0.75 μM enzyme, 10 min at 37° C.; substrate 1 mM, ATP 1 mM
Response body: numeric value in %, unit text excluded.

Here is how some molecules turned out for Percentage Conversion.
O=S(=O)(O)NC1C(O)OC(CO)[C@@H](O)C1O (stereo partly drawn) :: 0
O=C(NC1C(O)OC(COS(=O)(=O)O)[C@@H](O)C1O)C(F)(F)F (stereo partly drawn) :: 0
[N-]=[N+]=N[C@@H](C=O)[C@@H](OS(=O)(=O)O)[C@H](O)[C@H](O)CO :: 0
[N-]=[N+]=NC1C(O)OC(CO)[C@H](O)C1O (stereo partly drawn) :: 0
CC(=O)NC1C(O)OC(CN=[N+]=[N-])[C@@H](O)C1O (stereo partly drawn) :: 0
CCCC(=O)NC1C(O)OC(CO)[C@H](O)C1O (stereo partly drawn) :: 24.0
[N-]=[N+]=NC1C(O)OC(COS(=O)(=O)O)[C@@H](O)[C@@H]1O (stereo partly drawn) :: 0
O=C(NC1C(O)OC(CO)[C@H](O)C1O)c1ccccc1 (stereo partly drawn) :: 0

Input CC(=O)NC1C(O)OC(CO)[C@H](O)[C@@H]1O (stereo partly drawn) . Output Percentage Conversion: 19.9

----------
- TARGET_SYSTEM: NahK_ATCC15697 (Bifidobacterium longum, UniProt B7GN78)
- TEST_DETAILS: Substrate specificity CE assay, NahK_ATCC15697
- Format: biochemical, Bifidobacterium infantis
- PARTICULARS: Glc, Gal, Man, ManNAc and derivatives; enzyme 15, 37° C. for 30 min (Table 3)
Entries whose Percentage Conversion is below 10% take 1; entries at or above 10% take 0.

Look over these answered cases.
CC(=O)N[C@@H]1C(O)O[C@H](CO)[C@@H](O)[C@@H]1O (stereo partly shown) :: 1
O=C(CF)NC1C(O)OC(CO)[C@@H](O)C1O (stereo partly shown) :: 0

Now take the following compound into account.
Take the compound O=C(CO)NC1C(O)OC(CO)[C@@H](O)C1O (stereo partly shown) and say whether its Percentage Conversion is less than 10%.
1

----------
- System: NahK
- TEST_DETAILS: Kinase reaction monitored by CE (ATP to ADP), NahK
- Format: biochemical, Bifidobacterium infantis
- PARTICULARS: 1 hr; monosaccharide 15 mM, ATP 18 mM, 37° C.
MEASURED_PROPERTY: ATP Conversion (%)
Response body: numeric value in %, unit text excluded.

OCC1OC(O)C[C@@H](O)[C@@H]1O (stereo partly drawn) [2-deoxy glucose] :: 36.8
[N-]=[N+]=NC1C(O)OC(CO)[C@@H](O)C1O (stereo partly drawn) [2N3-Man] :: 34.9
CC(=O)NC1C(O)OC(CO)[C@@H](O)[C@@H]1O (stereo partly drawn) [GlcNAc, N-acetylglucosamine] :: 72.6
NC1C(O)OC(CO)[C@@H](O)[C@@H]1O (stereo partly drawn) [2-amino-2-deoxy-glucose] :: 11.9
N[C@@H]1C(O)O[C@H](CO)[C@@H](O)[C@@H]1O (stereo partly drawn) [T6-13 ManNH2, mannosamine] :: 10.3

Next compound, please.
Input CC(=O)N[C@@H]1C(O)O[C@H](CO)[C@@H](O)[C@@H]1O (stereo partly drawn) [N-acetylmannosamine] . Output ATP Conversion: 11.4

----------
- TARGET_SYSTEM: NahK_ATCC55813 (Bifidobacterium longum subsp. longum, UniProt E8MF12, D7V/R348H)
- Type: biochemical
- Parameters: made in house; host or cells: E. coli BL21(DE3)
- PARTICULARS: 0.75 μM enzyme, 10 min at 37° C.; substrate 1 mM, ATP 1 mM
MEASURED_PROPERTY: Percentage Conversion (%)
Response body: numeric value in %, unit text excluded.

Here is how some molecules turned out for Percentage Conversion.
O=C(NC1C(O)OC(CO)[C@@H](O)C1O)C(F)(F)F (some centres unmarked) [GlcNTFA] :: 16.2
CC(=O)NC1C(O)OC(COS(=O)(=O)O)[C@@H](O)C1O (some centres unmarked) :: 0
O=C(NC1C(O)OC(CO)[C@H](O)C1O)C(F)(F)F (some centres unmarked) [GalNTFA] :: 21.8
CC(=O)NC1C(O)OC(C)[C@@H](O)C1O (some centres unmarked) :: 2.1

Input CC(=O)NC1C(O)OC(CO)[C@@H](O)[C@@H]1O (some centres unmarked) . Output Percentage Conversion: 42.3

----------
- TARGET_SYSTEM: NahK_ATCC55813 (Bifidobacterium longum subsp. longum, UniProt E8MF12, D7V/R348H)
- Format: biochemical
- Design: made in house; host or cells: E. coli BL21(DE3)
- PARTICULARS: 0.75 μM enzyme, 10 min at 37° C.; substrate 1 mM, ATP 1 mM
Listed next: entries and their corresponding Percentage Conversion.
Response body: numeric value in %, unit text excluded.

Here is how some compounds turned out for Percentage Conversion.
[N-]=[N+]=NCC(=O)NC1C(O)OC(CO)[C@@H](O)C1O (some centres unmarked) :: 22.8
O=C(NC1C(O)OC(CO)[C@@H](O)C1O)c1ccccc1 (some centres unmarked) :: 5.2
NC1C(O)OC(CO)[C@@H](O)[C@@H]1O (some centres unmarked) :: 0
[N-]=[N+]=NCC(=O)NC1C(O)OC(CO)[C@H](O)C1O (some centres unmarked) :: 21.0

Next compound, please.
Input CCCC(=O)NC1C(O)OC(CO)[C@@H](O)C1O (some centres unmarked) . Output Percentage Conversion: 35.0

----------
- TARGET_SYSTEM: NahK_ATCC15697 (Bifidobacterium longum, UniProt B7GN78)
- TEST_DETAILS: Substrate specificity CE assay, NahK_ATCC15697
- Type: biochemical, Bifidobacterium infantis
- PARTICULARS: Glc, Gal, Man, ManNAc and derivatives; enzyme 15, 37° C. for 30 min (Table 3)
Entries whose Percentage Conversion is below 20% take fulfilled; entries at or above 20% take not fulfilled.

OCC1CC(O)C(O)C(O)O1 (stereo not shown) :: not fulfilled
COC1C(O)OC(CO)[C@@H](O)C1O (stereo partly shown) :: fulfilled
[N-]=[N+]=NC1C(O)OC(CO)[C@@H](O)C1O (stereo partly shown) :: not fulfilled
COCC1OC(O)C(NC(C)=O)[C@@H](O)[C@@H]1O (stereo partly shown) :: not fulfilled
OCC1OC(O)C[C@@H](O)[C@@H]1O (stereo partly shown) :: not fulfilled

Now take the following molecule into account.
Take the molecule COCC(=O)NC1C(O)OC(CO)[C@@H](O)C1O (stereo partly shown) and say whether its Percentage Conversion is less than 20%.
fulfilled
